Ref: patent US20240309103A1

- STUDY_SYSTEM: T1, mfNPR1-mFc:hANP complex (monkey; human, UniProt P01160 124-151)
- T1 construct: also called monkey NPR1 complexed to ANP
- EXPERIMENT_DESCRIPTION: SPR, mAb captured, 37C
ENDPOINT_NAME: koff (s⁻¹)
I only need the number, in s⁻¹, no unit after it.

Dear colleague, I am looking for the recorded koff of the following binder: mAb22805 (antibody, human IgG4, V domains shown) VH: QVQLVESGGGVVQPGRSLRLSCAASGFTFSTYGMHWVRQAPGKGLEWVALIWNDGSNKYYADSVKGRFTISRDNSKNTLDLQMNSLRAEDTAVYYCARLNTRITGTTNLDYWGQGTLVTVSS VL: DIQMTQSPSSLSASVGDRVTVSCRASQSIANYLNWYQQKPGKAPNLLIYGAYTLQSGVPSRFRGSGSGTDFTLTISSLQPEDFATYYCQQTYSTPPITFGQGTRLEIK
0.000209

Would you mind doing mAb22033 (antibody, human IgG4, V domains shown) VH: QVQLVQSGAEVKKPGASVTVSCKASGYTFTDYYMHWVRQAPGQGLEWMGWIKPNSGGTNSAQRFQGRITMTWDTSISTAYMELSRLRSDDTAVYYCSRGGPVMNYYYYYGMDVWGQGTTVTVSS VL: NIQMTQSPSSLSASVGDRVTITCRASQSIDSYLNWYQQKPGKAPKLLIYVASSLQSGVPSRFSGSGSGKDFTLTISSLQPEDFATYYCQQSYSIPTFGQGTRLEIK as well?
8.9e-05

Would you mind doing mAb25491 (antibody, human IgG4, V domains shown) VH: QVQLVQSGAEVMKPGASVKVSCKASGYTFTGYYIHWVRQAPGQGLEWMGWITPNSGATNYAQKFQGRVTLTRDTSISTAYMELTRLKSDDTAVYYCARGGQLEFFYYYYGMDVWGQGTTVTVSS VL: DIQMTQSPSSLSASAGDRVTITCRASQSIDSYLNWYQQKPGKAPKLLISATSGFQSGVPSRFSGSGSGTDFTLTISSLQPEDFGTYYCQQSYTTPITFGQGTRLEIK as well?
0.000106
